Test system: HT29
assay: cells
Format: cell-based
run-conditions: Homo sapiens, HT-29; HT29, 48 hours exposure, SRB; 50% net cell killing (cytotoxic effect); read-out: LC50 (the source's name)
quantity: CC50

The cases that follow already have their CC50 on record.
# molecule, CC50
records = [
    ("COC1=CC[C@@H]([C@@H](C)/C=C(C)/C=C\\C=C/C(=O)N[C@@H](Cc2ccccc2)C(=O)N/C=C\\C[C@@H](O)C/C=C(\\C)Cl)OC1=O [Compound 30d]", "> 16.7 nM"),
    ("COC1=CC[C@@H]([C@@H](C)/C=C(C)/C=C\\C=C/C(=O)N[C@H](C(=O)N/C=C\\C[C@H](C/C=C(\\C)Cl)OC(N)=O)C(C)C)OC1=O [Compound 5]", "> 169 nM"),
    ("COC1=CC[C@@H]([C@@H](C)/C=C(C)/C=C/C=C/C(=O)N[C@H](C(=O)N/C=C\\C[C@@H](O)C/C=C(\\C)Cl)C(C)(C)C)OC1=O [Compound 38]", "> 178 nM"),
]

Shift focus to the following entry.
What does the record list as CC50 for COC1=CC[C@@H]([C@@H](C)/C=C(C)/C=C\C=C/C(=O)N[C@@H](Cc2ccccc2)C(=O)N/C=C\C[C@H](C/C=C(\C)Cl)OC(N)=O)OC1=O [Compound 31] ?
> 15.6 nM
